Test system: OVCAR-5 ovarian
METHOD_DESCRIPTION: NCI-60 one-dose screen, 48 h (100 = growth as untreated, 0 = no growth, -100 = all killed)
MEASUREMENT_CONTEXT: 10 µM unless noted
Compounds without any hit were thinned out: in the full panel of roughly 83,000, 20% have a hit.
Give Criterion met when the value for growth is at least 90%. Give Criterion not met when it is less.

See these solved cases before continuing.
COMPOUND	CAT
COc1ccc(/C=N/C2=C(C#N)C(c3ccccc3[N+](=O)[O-])c3ccc4ccccc4c3O2)cc1 (stereo not given)	Criterion met
O=S(=O)(O)c1cc(O)c2c(N=Nc3ccc(Nc4ccccc4)c4c(S(=O)(=O)O)cccc34)cc(S(=O)(=O)O)cc2c1	Criterion met
CCOC(=O)C1CC(=O)c2cc(OC)c(OC)cc2C1 (stereo not given)	Criterion met
COc1cc2ncnc(Nc3ccc(C(=O)/C=C/c4ccc(C(F)(F)F)cc4F)cc3)c2cc1OC	Criterion met
CC(C)Sc1nc(NN)c(C#N)c(-c2ccccc2)n1	Criterion met
C=C(C)[C@@H]1CC[C@]2(C(=O)O)CC[C@]3(C)[C@H](CC[C@@H]4[C@@]5(C)C[C@@H](CC#Cc6ccc(Br)cc6)C(=O)C(C)(C)[C@@H]5CC[C@]43C)[C@@H]12	Criterion not met
COc1cc(CNC(=O)CCCCC[P+](c2ccccc2)(c2ccccc2)c2ccccc2)c(OC)c2c1OCO2	Criterion met
CC(=O)N1c2ccccc2NC2=C(C(=O)N(C)C2(C)C)C1C (stereo not given)	Criterion not met

Alright, here's another compound for you.
## Task Determine whether this compound has growth no lower than 90%: COc1ccc(/C(C)=N/NC(=O)CSc2nc3ccccc3c(=O)n2Cc2ccc(S(N)(=O)=O)cc2)c(OC)c1
## Result Criterion met

----------
Test system: CCRF-CEM leukemia
METHOD_DESCRIPTION: NCI-60 one-dose screen, 48 h
MEASUREMENT_CONTEXT: 10 µM unless noted
This is part of a sample that, as a whole, favours compounds with a hit. Of some 83,000 tested, about 20% had one in any assay. Active and inactive are the calls of the source. Rule for the calls: active = growth percent below 10; inactive = the rest.
Respond only with the outcome that fits, drawn from class 1 for active, class 0 for inactive

Example entries and their recorded answers appear below.
MOLECULE	CAT
O=C(Nc1ccc2ncnc(Nc3ccc(Oc4cccc(F)c4)c(Cl)c3)c2c1)c1ccc(CN2CCOCC2)cc1	class 1
CNC(=O)c1c(NC(=O)c2ccc(C(C)C)cc2)sc2c(CN(C)C)c(O)ccc12	class 0
CCCCN(CCCC)CCc1c(C)cc(C)c(CCN(CCCC)CCCC)c1O	class 0
Cc1n[nH]c(C)c1-c1c(C)n[nH]c1C	class 0
C#CCNC(=O)[C@H](Cc1ccccc1)NC(=O)[C@]12CC[C@@H](C(=C)C)[C@@H]1[C@H]1CC[C@@H]3[C@@]4(C)Cc5c([nH]c6ccccc56)C(C)(C)[C@@H]4CC[C@@]3(C)[C@]1(C)CC2	class 0
Cc1cccc(Oc2ccc(Nc3ncnc4ccc(NC(=O)CN(C)C)cc34)cc2Cl)c1	class 0

## Task Outcome? O=C(Nc1ccc2ncnc(Nc3ccc(Oc4cccc(F)c4)c(Cl)c3)c2c1)c1ccc(CNCCO)cc1
## Result class 1

## Task Hi, do you know how Clc1ccc(N2N=C(c3cccc(Nc4ccncc4)c3)CC2c2ccc3c(c2)OCO3)cc1 (stereo not drawn) came out in this test?
## Result class 1
